growth overview
- System: SF-539 CNS
- Test details: NCI-60 one-dose screen, 48 h (100 = growth as untreated, 0 = no growth, -100 = all killed)
- Conditions: 10 µM unless noted
- Description: Cells are grown in 96 well plates and exposed to the test compound for 48 hours. Compounds are tested at a single concentration, which is 10^-5 M for most compounds. The reported endpoint is percent growth (GI% or GIPRCNT), where numbers from 0 - 100% represent growth inhibition, and numbers from -100% - 0 represent cell death. For example, a value of 40 represents 60% growth inhibition. A value of 0 means no net growth occurred over the course of the experiment. […]
The panel holds about 83,000 compounds, 20% with a hit somewhere; the sample as a whole holds those more often.
Please state the figure in %; there is no need to write the unit.

Sample answers from the record:
{"columns": ["Compound", "growth (%)"],
 "data": [
  ["S=c1ssnc1-c1cccs1", 106],
  ["Cc1c(N2CN3C[C@H](C)N4CN(c5c(C)n(C)n(-c6ccccc6)c5=O)CN5C[C@@H](C)N(C2)C3C54)c(=O)n(-c2ccccc2)n1C (stereo not given in full)", 91.2]
]}

Q: Give growth (SF-539 CNS) of the following compound: "Cc1ccccc1OCC(O)COc1ccccc1C"
Result: 95.9

Q: What about "COC(=O)Cc1nc(C#N)c(N(C)C)o1" ?
Result: 99

Q: # repeat for Cc1ccc(-c2cc(C(=O)N3N=C(c4ccc(N)cc4)CC3c3ccc(Cl)cc3)c3ccccc3n2)cc1 (stereo not given)
Result: -2.29

src = PubChem BioAssay (NCI)
